Molecular target: TrkA (Homo sapiens)
Sequence (P04629 33-796): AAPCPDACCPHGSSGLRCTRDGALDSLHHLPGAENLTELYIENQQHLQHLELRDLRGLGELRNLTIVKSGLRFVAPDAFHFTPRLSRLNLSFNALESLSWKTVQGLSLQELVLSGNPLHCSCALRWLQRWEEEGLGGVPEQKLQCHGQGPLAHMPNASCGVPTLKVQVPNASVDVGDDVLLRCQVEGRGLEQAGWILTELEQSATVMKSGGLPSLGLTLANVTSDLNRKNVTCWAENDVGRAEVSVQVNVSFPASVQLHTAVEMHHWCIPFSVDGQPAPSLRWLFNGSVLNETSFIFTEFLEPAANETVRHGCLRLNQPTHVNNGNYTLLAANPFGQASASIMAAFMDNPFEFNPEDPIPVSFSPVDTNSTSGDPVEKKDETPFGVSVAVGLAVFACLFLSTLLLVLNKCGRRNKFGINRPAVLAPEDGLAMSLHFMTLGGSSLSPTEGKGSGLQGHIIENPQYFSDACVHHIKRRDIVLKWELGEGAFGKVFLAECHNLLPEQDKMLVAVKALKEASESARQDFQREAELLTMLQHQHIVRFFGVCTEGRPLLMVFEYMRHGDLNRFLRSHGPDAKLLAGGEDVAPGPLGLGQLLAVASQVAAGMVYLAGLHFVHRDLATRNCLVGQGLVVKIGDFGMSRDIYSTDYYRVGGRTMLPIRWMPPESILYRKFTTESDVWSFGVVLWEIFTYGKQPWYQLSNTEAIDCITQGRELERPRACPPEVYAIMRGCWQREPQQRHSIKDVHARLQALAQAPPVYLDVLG
Experiment: KINOMEscan primary screen against TrkA
Assay type: binding
Details: 10 nM compound; % of control
Readout: % Ctrl. TrkA @10 nM (% Ctrl.)

(I) Cc1ccc(Sc2nc(Nc3cc(C)[nH]n3)cc(N3CCN(C)CC3)n2)c(C)c1
(II) Cc1cc(Nc2cc(N3CCN(C)CC3)nc(SCc3ccc(C)c(C)c3)n2)n[nH]1
(III) Cc1ccc(CSc2nc(Nc3cc(C)[nH]n3)cc(N3CCN(C)CC3)n2)cc1
Query: Sort the 3 molecules by % Ctrl. TrkA @10 nM; largest first, smallest last. Answer with the labels in sequence, matching the requested order.
Result: I, II, III
(I: 77 % Ctrl., II: 53 % Ctrl., III: 35 % Ctrl.)

(a) Cc1cccc(Sc2nc(Nc3cc(C)[nH]n3)cc(N3CCN(C)CC3)n2)c1
(b) CN1CCN(c2cc(Nc3cc(C4CCCC4)[nH]n3)nc(Sc3ccccc3)n2)CC1
Query: Short answer wanted: higher % Ctrl. TrkA @10 nM, a or b ? Select an item and report its label.
Result: a
(a: 50 % Ctrl., b: 15 % Ctrl.)

(a) Cc1ccc(C)c(Sc2nc(Nc3cc(C)[nH]n3)cc(N3CCN(C)CC3)n2)c1
(b) Cc1cc(Nc2cc(N3CCN(C)CC3)nc(SCc3ccc(F)cc3)n2)n[nH]1
Query: Between a and b , whose recorded % Ctrl. TrkA @10 nM is greater? Write the label of whichever entry you select.
Result: a

* * *

Molecular target: TrkA
Assay: KdELECT Kd measurement (KINOMEscan), TrkA
Format: binding
Conditions: TrkA pKd versus AurA pKd
Protocol: Kd measurements were done via the KdELECT product service from DiscoverX Corporation (Freemont, Calif., USA) which also employs the KINOMEscan technology. Here, inhibitor binding constants (Kd values) are calculated from duplicate 11-point dose-response curves.
Readout: ΔpKd

Previously resolved entries follow.
CN1CCN(c2cc(Nc3cc(C4CCCC4)[nH]n3)nc(Sc3ccccc3)n2)CC1 [a4]	1.8
CN1CCN(c2cc(Nc3cc(-c4cccc(F)c4)[nH]n3)nc(Sc3ccccc3)n2)CC1 [a1]	3.3
Cc1ccc(CSc2nc(Nc3cc(C)[nH]n3)cc(N3CCN(C)CC3)n2)cc1 [b8]	1.1

(P) Cc1cc(Nc2cc(N3CCN(C)CC3)nc(SCc3ccc(F)cc3)n2)n[nH]1 [b7]
(Q) Cc1cc(Nc2cc(N3CCN(C)CC3)nc(Sc3ccccc3)n2)n[nH]1 [Reference 2, reference compound]
Query: Between P and Q , whose measured ΔpKd reads higher? Mark your selection by writing its label.
Result: P
(P: 1.4, Q: 0.1)

* * *

Molecular target: AurA (Homo sapiens)
Sequence (O14965 1-403): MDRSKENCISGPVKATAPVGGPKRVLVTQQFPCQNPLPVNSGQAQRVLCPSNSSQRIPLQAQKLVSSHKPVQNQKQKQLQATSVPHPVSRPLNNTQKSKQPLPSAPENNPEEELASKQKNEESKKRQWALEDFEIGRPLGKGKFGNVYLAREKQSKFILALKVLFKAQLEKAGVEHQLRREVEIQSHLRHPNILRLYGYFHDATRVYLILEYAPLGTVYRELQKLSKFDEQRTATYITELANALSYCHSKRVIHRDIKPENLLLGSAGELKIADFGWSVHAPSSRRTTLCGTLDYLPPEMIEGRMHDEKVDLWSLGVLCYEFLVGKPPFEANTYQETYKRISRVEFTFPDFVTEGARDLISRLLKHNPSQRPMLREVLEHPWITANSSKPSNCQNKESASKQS
Assay: KdELECT Kd measurement (KINOMEscan), AurA
Assay type: binding
Experimental: Kd measurements were done via the KdELECT product service from DiscoverX Corporation (Freemont, Calif., USA) which also employs the KINOMEscan technology. Here, inhibitor binding constants (Kd values) are calculated from duplicate 11-point dose-response curves.
Readout: AurA [pKd]

CN1CCN(c2cc(Nc3cc(C4CCCC4)[nH]n3)nc(Sc3ccccc3)n2)CC1	7.0
Cc1cc(Nc2cc(N3CCN(C)CC3)nc(SCc3ccc(F)cc3)n2)n[nH]1	7.6
CN1CCN(c2cc(Nc3cc(-c4cccc(F)c4)[nH]n3)nc(Sc3ccccc3)n2)CC1	5.3
Cc1cc(Nc2cc(N3CCN(C)CC3)nc(Sc3ccccc3)n2)n[nH]1 [Reference 2, reference compound]	7.4
Cc1ccc(CSc2nc(Nc3cc(C)[nH]n3)cc(N3CCN(C)CC3)n2)cc1	7.3
